# study system: HIV-1 PR (Human immunodeficiency virus type 1 group M subtype B)
# protocol: HIV-protease inhibitory activity assay (FRET peptide substrate)
# reported conditions: Test Example 1
endpoint label: pIC50
Note: pIC50 values are expressed as the negative base-10 logarithm of concentration in M.

Recorded pIC50 of COc1ccc(S(=O)(=O)N(CC(C)C)CC(O)C(Cc2ccc(NCc3ccccc3-c3ccc(Nc4sc5c(c4C(=O)O)CC(C)(C)CC5)nc3)cc2)NC(=O)OC2COC3(C)OCCC23)cc1 (centres unmarked) [Compound I-775] , please.
8.44

Recorded pIC50 of COc1ccc(S(=O)(=O)N(CC(C)C)CC(O)C(Cc2ccc(OC3CCN(C(=O)Nc4ccc(Cl)cc4-c4sc5c(c4C(=O)O)CC(C)(C)CC5)C3)cc2)NC(=O)OC2COC3(C)OCCC23)cc1 (centres unmarked) [Compound I-244] , please.
8.70

Recorded pIC50 of COc1ccc(S(=O)(=O)N(CC(C)C)CC(O)C(Cc2ccc(N(C)Cc3ccc(-c4sc5c(c4C(=O)O)CC(C)(C)CC5)cn3)cc2)NC(=O)OC2COC3(C)OCCC23)cc1 (centres unmarked) [Compound I-449] , please.
8.66

Recorded pIC50 of COc1ccc(S(=O)(=O)N(CC(C)C)CC(O)C(Cc2ccc(NCc3cc(F)ccc3-c3sc4c(c3C(=O)O)CC(C)(C)CC4)cc2)NC(=O)OC2COC3(C)OCCC23)cc1 (centres unmarked) [Compound I-271] , please.
8.65

Recorded pIC50 of CC1(C)CCc2sc(NC(=O)c3ccccc3CNc3ccc(CC(NC(=O)OC4COC5(C)OCCC45)C(O)CN(CC4CCC4)S(=O)(=O)c4ccc5ncsc5c4)cc3)c(C(=O)O)c2C1 (centres unmarked) [Compound I-617] , please.
8.50

Recorded pIC50 of COc1ccc(S(=O)(=O)N(CC2CCCC2)CC(O)C(Cc2ccc(OC3CCN(C(=O)c4ccc(Cl)cc4-c4sc5c(c4C(=O)O)CC(C)(C)CC5)C3)cc2)NC(=O)OC2COC3(C)OCCC23)cc1 (centres unmarked) [Compound I-210] , please.
8.67

Recorded pIC50 of COc1ccc(S(=O)(=O)N(CC(C)C)C[C@@H](O)[C@H](Cc2ccccc2)NC(=O)O[C@H]2CO[C@@]3(CNC(=O)OCCCc4sc5c(c4C(=O)O)CC(C)(C)CC5)OCC[C@@H]23)cc1 [Compound I-34] , please.
8.89

Recorded pIC50 of COc1ccc(S(=O)(=O)N(CC(C)C)CC(O)C(Cc2ccc(N3CC4CN(C(=O)c5sc6c(c5C(=O)O)CC(C)(C)CC6)CC4C3)cc2)NC(=O)OC2COC3(C)OCCC23)cc1 (centres unmarked) [Compound I-223] , please.
8.71

###

# study system: HIV-1 PR (Human immunodeficiency virus type 1 group M subtype B)
# protocol: HIV-protease inhibitory activity assay (FRET peptide substrate)
# reported conditions: Test Example 1
# label 1 = IC50 below 2 nM (exclusive); label 0 = IC50 at/above 2 nM

Consider the molecule CC(C)CN(CC(O)C(Cc1ccc(OCc2ccccc2-c2sc3c(c2C(=O)O)CC(C)(C)CC3)cc1)NC(=O)OC1COC2(C)OCCC12)S(=O)(=O)c1ccc2nc(NC3CCN(C4CCCC4)CC3)sc2c1 (stereo not drawn) . Is its IC50 strictly less than 2 nM?
label 0

Consider the molecule COc1ccc(S(=O)(=O)N(CC(C)C)CC(O)C(Cc2ccc(Nc3ccc(-c4sc5c(c4C(=O)O)CC(C)(C)CC5)cc3)cc2)NC(=O)OC2COC3(C)OCCC23)cc1 (stereo not drawn) . Is its IC50 strictly less than 2 nM?
label 0

Consider the molecule COc1ccc(S(=O)(=O)N(CC(C)C)CC(O)C(Cc2ccc(OCc3ccc(C#N)cc3-c3sc4c(c3C(=O)O)CC(C)(C)CC4)cc2)NC(=O)OC2COC3(C)OCCC23)cc1 (stereo not drawn) . Is its IC50 strictly less than 2 nM?
label 1

Consider the molecule `COc1ccc(S(=O)(=O)N(CC(C)C)C[C@@H](O)[C@H](Cc2ccc(OCc3ccccc3-c3sc4c(c3C(=O)O)CC(C)(C)CC4)cc2)NC(=O)O[C@@H]2C[C@@H]3[C@@H](OC(C)=O)CO[C@@H]3C2)cc1` . Is its IC50 strictly less than 2 nM?
label 1

Consider the molecule CC(C)CN(CC(O)C(Cc1ccc(NCc2ccccc2-c2sc3c(c2C(=O)O)CC(C)(C)CC3)cc1)NC(=O)OC1COC2(C)OCCC12)S(=O)(=O)c1ccc2c(c1)OCO2 (stereo not drawn) . Is its IC50 strictly less than 2 nM?
label 0

Consider the molecule CC(C)CN(CC(O)C(Cc1ccc(OCc2nc(Oc3ccccc3)sc2C(=O)O)cc1)NC(=O)OC1COC2OCCC12)S(=O)(=O)c1ccc2ncsc2c1 (stereo not drawn) . Is its IC50 strictly less than 2 nM?
label 1

Consider the molecule COc1ccc(S(=O)(=O)N(CC(C)C)CC(O)C(Cc2ccc(OCc3ccccc3-c3sc(C)c(-c4ccccc4)c3C(=O)O)cc2)NC(=O)OC2COC3OCCC23)cc1 (stereo not drawn) . Is its IC50 strictly less than 2 nM?
label 1

Consider the molecule COc1ccc(S(=O)(=O)N(CC(C)C)CC(O)C(Cc2ccc(NCc3ccc(N4CCCCC4)cc3-c3sc4c(c3C(=O)O)CC(C)(C)CC4)cc2)NC(=O)OC2COC3(C)OCCC23)cc1 (stereo not drawn) . Is its IC50 strictly less than 2 nM?
label 0

Consider the molecule COc1ccc(S(=O)(=O)N(CC(C)C)CC(O)C(Cc2ccc(NCc3ccccc3-c3c(C(=O)O)[nH]c4ccccc34)cc2)NC(=O)OC2COC3(C)OCCC23)cc1 (stereo not drawn) . Is its IC50 strictly less than 2 nM?
label 0

###

Exercise: for every item that follows, state its recorded IC50.
# study system: HIV-1 PR (Human immunodeficiency virus type 1 group M subtype B)
# protocol: HIV-protease inhibitory activity assay (FRET peptide substrate)
# reported conditions: Test Example 1
Answer in nM, number only, no unit symbol.

Recorded IC50 of COc1ccc(S(=O)(=O)N(CC(C)C)CC(O)C(Cc2ccc(NCc3ccccc3-c3ccc(-c4sc5c(c4C(=O)O)CC(C)(C)CC5)nc3)cc2)NC(=O)OC2COC3(C)OCCC23)cc1 (centres unmarked) , please.
1.69

Recorded IC50 of COc1ccc(S(=O)(=O)N(CC(C)C)CC(O)C(Cc2ccc(NCc3ccccc3-c3c(C(=O)O)[nH]c4ccc(Cl)cc34)cc2)NC(=O)OC2COC3(C)OCCC23)cc1 (centres unmarked) , please.
2.35

Recorded IC50 of COc1ccc(S(=O)(=O)N(CC(C)C)CC(O)C(Cc2ccc(OCc3ccc(C(=O)O)c(-c4ccc(F)cc4F)c3)cc2)NC(=O)OC2COC3(C)OCCC23)cc1 (centres unmarked) , please.
1.27

Recorded IC50 of COc1ccc(S(=O)(=O)N(CC(C)C)CC(O)C(Cc2ccc(N(C)CCOc3ccc(-c4sc5c(c4C(=O)O)CC(C)(C)CC5)c(C)c3)cc2)NC(=O)OC2COC3(C)OCCC23)cc1 (centres unmarked) , please.
8.93

Recorded IC50 of COc1ccc(S(=O)(=O)N(CC(C)C)CC(O)C(Cc2ccc(NCc3ccccc3-c3ccc4[nH]c(C(=O)O)cc4c3)cc2)NC(=O)OC2COC3(C)OCCC23)cc1 (centres unmarked) , please.
2.46

Recorded IC50 of COc1ccc(S(=O)(=O)N(CC(C)C)CC(O)C(Cc2ccc(NCc3ccc(N4CCCC4=O)cc3-c3sc4c(c3C(=O)O)CC(C)(C)CC4)cc2)NC(=O)OC2COC3(C)OCCC23)cc1 (centres unmarked) , please.
2.08

Recorded IC50 of COc1ccc(S(=O)(=O)N(CC(C)C)CC(O)C(Cc2ccc(NCc3ccccc3-c3c(C(=O)O)cnc4sccc34)cc2)NC(=O)OC2COC3(C)OCCC23)cc1 (centres unmarked) , please.
1.93

Recorded IC50 of COc1ccc(S(=O)(=O)N(CC(C)C)CC(O)C(Cc2ccc(-c3sc4c(c3C(=O)O)CC(C)(C)CC4)cc2)NC(=O)OC2COC3(C)OCCC23)cc1 (centres unmarked) , please.
1.11

###

# protocol: Evaluation of total body clearance (CLtot), intravenous administration
# Format: in vivo, Sprague-Dawley (SD)
# reported conditions: rat (SD), intravenous administration 0.5-10 mg/kg; CLtot = dose/AUC
Is rat_CLt at least 1 mL/min/kg? Then Condition met. If not, Condition not met.

Decide: is the reported value of rat_CLt for COc1ccc(S(=O)(=O)N(CC(C)C)C[C@@H](O)[C@H](Cc2ccc(OCc3ccccc3-c3sc4c(c3C(=O)O)CC(C)(C)CC4)cc2)NC(=O)OC2CO[C@H]3OC[C@H](OC)[C@@H]23)cc1 (stereo partly shown) equal to or greater than 1 mL/min/kg?
Condition not met

Decide: is the reported value of rat_CLt for Cc1cc(OCCN(CC(O)C(Cc2ccccc2)NC(=O)OC2COC3(C)OCCC23)S(=O)(=O)c2ccc3ncsc3c2)ccc1-c1sc2c(c1C(=O)O)CC(C)(C)CC2 (stereo not shown) equal to or greater than 1 mL/min/kg?
Condition not met

Decide: is the reported value of rat_CLt for Cc1cc(Oc2ccc(CC(NC(=O)OC3COC4(C)OCCC34)C(O)CN(CC(C)C)S(=O)(=O)c3ccc4ncsc4c3)cc2)ccc1-c1sc2c(c1C(=O)O)CC(C)(C)CC2 (stereo not shown) equal to or greater than 1 mL/min/kg?
Condition met

Decide: is the reported value of rat_CLt for COc1ccc(S(=O)(=O)N(CC(C)C)CC(O)C(Cc2ccc(NCC3=C(C(=O)Nc4sc5c(c4C(=O)O)CC(C)(C)CC5)CCC3)cc2)NC(=O)OC2COC3(C)OCCC23)cc1 (stereo not shown) equal to or greater than 1 mL/min/kg?
Condition not met

Decide: is the reported value of rat_CLt for CC1(C)CCc2sc(-c3ccccc3CNc3ccc(CC(NC(=O)OC4COC5(C)OCCC45)C(O)CN(CC4CCCC4)S(=O)(=O)c4ccc5c(c4)OCO5)cc3)c(C(=O)O)c2C1 (stereo not shown) equal to or greater than 1 mL/min/kg?
Condition met

Decide: is the reported value of rat_CLt for COc1ccc(S(=O)(=O)N(CCC(C)C)CC(O)C(Cc2ccc(NCc3ccccc3-c3sc4c(c3C(=O)O)CC(C)(C)CC4)cc2)NC(=O)OC2COC3(C)OCCC23)cc1 (stereo not shown) equal to or greater than 1 mL/min/kg?
Condition met

Decide: is the reported value of rat_CLt for `COc1ccc(S(=O)(=O)N(CC(C)C)C[C@@H](O)[C@H](Cc2ccc(NC[C@H]3CCCC[C@H]3c3sc4c(c3C(=O)O)CC(C)(C)CC4)cc2)NC(=O)O[C@H]2CO[C@@]3(C)OCC[C@@H]23)cc1` equal to or greater than 1 mL/min/kg?
Condition not met

Decide: is the reported value of rat_CLt for CC(C)CN(CC(O)C(Cc1ccc(NCc2ccccc2-c2sc3c(c2C(=O)O)CC(C)(C)CC3)cc1)NC(=O)OC1COC2(C)OCCC12)S(=O)(=O)c1ccc2ncsc2c1 (stereo not shown) equal to or greater than 1 mL/min/kg?
Condition met

Decide: is the reported value of rat_CLt for `COc1ccc(S(=O)(=O)N(CC(C)C)C[C@@H](O)[C@H](Cc2ccc(OC(C)(C)C(=O)Nc3sc4c(c3C(=O)O)CC(C)(C)CC4)cc2)NC(=O)O[C@H]2CO[C@@]3(C)OCC[C@@H]23)cc1` equal to or greater than 1 mL/min/kg?
Condition not met
